Measured EC50 (read off the curve), listed per entry for reference.
Target: T1, extracellular domain of IL-13Rα1 (R&D Systems, UK) (human, UniProt P78552 22-343)
T1 construct: extracellular domain; Bought; also called recombinant human IL-13Rα1 polypeptide; immobilized extracellular domains of human IL-13Rα1
T1 sequence (looked up): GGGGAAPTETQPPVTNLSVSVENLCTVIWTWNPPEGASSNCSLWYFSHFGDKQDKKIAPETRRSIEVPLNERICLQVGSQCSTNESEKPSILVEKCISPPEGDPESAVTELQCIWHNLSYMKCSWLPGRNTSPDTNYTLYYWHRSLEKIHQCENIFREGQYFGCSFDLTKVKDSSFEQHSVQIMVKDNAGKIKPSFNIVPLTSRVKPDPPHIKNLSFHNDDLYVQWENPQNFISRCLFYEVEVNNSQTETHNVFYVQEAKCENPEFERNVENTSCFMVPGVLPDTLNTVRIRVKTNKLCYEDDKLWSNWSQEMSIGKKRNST
Assay: ELISA, immobilized extracellular domain of human IL-13Rα1, detection with anti-human kappa-POD, OD 405nm-492nm
endpoint label: EC50 (read off the curve)

HuMab LC5002-007 (antibody, human IgG1, V domains shown, Human IgG1 kappa from a HuMab mouse hybridoma; Only the variable domains are tied to this antibody; also called hu-MAB<h-IL-13R alpha>LC.5002-007 (DSM ACC2712)) VH: QVQLVQSGAEVKKPGSSVKVSCKVSGGTFSSYAFSWVRQAPGQGLEWMGRIIPILGRTNYAQKFQGRVTITADKSTSTAYMEVSSLRSEDTAVYYCAREGETLDYFYYGMDVWGQGTTVTVSS VL: EIVLTQSPGTLSLSPGERATLSCRASQSVSSSYLAWYQQKPGQAPRLLIYGASSRAIGIPDRFSGSGSGTDFTLTISRLEPEDFAVYYCQHYGSSLTFGGGTKVEIK
~0.8 nM
HuMab LC5002-002 (antibody, human IgG1, V domains shown, Human IgG1 kappa from a HuMab mouse hybridoma; Only the variable domains are tied to this antibody; also called hu-MAB<h-IL-13R alpha>LC.5002-002 (DSM ACC2709)) VH: EVQLLESGGGLVQPGGSLRLSCAASGFTFNIYAMNWVRQAPGKGLEWVSVISGRGITTYYADSVKGRFTISRDNSKNTLYLQMNSLRADDTAVYYCAKGSSSWTDFDYWGQGTLVTVSS VL: DIQMTQSPSSLSASVGDRVTITCRASQGISRWVAWYQQKPEKAPKSLIYAASSLQSGVPSRFSGSGSGTDFTLTISSLQPEDFATYYCQQYNSYPWTFGQGTKVEIK
~1 nM
HuMab LC5002-005 (antibody, V domains shown, Only the variable domains are tied to this antibody; also called hu-MAB<h-IL-13Ralpha>LC.5002-005 (DSM ACC2711)) VH: EVQVLDSGGGLVQPGGSLRLSCTASGFTFRLYTMSWVRQTPGRGLEWVSGISGSGLSTYFADSVKGRFTISRDNSKNTVYLQMNSLRAEDTAVYYCAKEGDWIYFDSWGQGTLVIVSS VL: DIQMTQSPSSLSASVGDRVTITCRASQGISSWLAWYQQKPEKAPKSLIYAASSLQSGVPSRFSGSGSGTDFTLTISSLQPEDFATYYCQQYNSHPPTFGQGTKLEIK
~1 nM
HuMab LC5002-003 (antibody, V domains shown, Human IgG1 kappa from a HuMab mouse hybridoma; Only the variable domains are tied to this antibody; also called LC50002-003; hu-MAB<h-IL-13Ralpha>LC.5002-003 (DSM ACC2710)) VH: EVQLLESGGDLIQPGGSLRLSCAASGFTFNIYAMNWVRQAPGKGLEWVSVISGRGITTYYADSVKGRFTISRDNSKNTLYLQMDSLRAEDTAVYYCAKGSSYWTDFDYWGQGTLVTVSS VL: DIQMTQSPSSLSASVGDRVTITCRASQGISSWLAWYQQKPEKAPKSLIYAASSLQSGVPSRFSGSGSGTDFTLTISSLQPEDFATYYCQQYNSYPWTFGQGTKVEIK
1 to 2 nM
